Every entry's value here was drawn from the supplement of paper PMC10065799.

As shown below, each of these sequences has a reported phosphorylation enrichment value.
# Tested on: c-Abl (mouse)
# protocol_description: phosphorylation enrichment, bacterial display (enrichment ratio); higher = better substrate or ligand; peptides without Tyr show the background;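 further: 11-residue human phosphosite peptides and single-mutation variants displayed on the E. coli surface, counted by deep sequencing, each peptide's frequency after selection divided by its frequency in the unselected input library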;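 further: frequency after pTyr selection over input frequency; kinase dosed for 20-30% of maximal phosphorylation in three min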
No unit in the answer, only the number.

Worked examples, 5 sequences total:
{"sequence_entry": "ENRLDYGSAWA [AR_Y395_P392R]", "target_or_test_system": "c-Abl (mouse)", "number": 0.501}
{"sequence_entry": "DFLSSYSAVNQ [OAT_Y85]", "target_or_test_system": "c-Abl (mouse)", "number": 0.703}
{"sequence_entry": "DLVRPYVHKIL [SF3B1_Y570]", "target_or_test_system": "c-Abl (mouse)", "number": 0.539}
{"sequence_entry": "APSHAYHRGVL [ANO1_Y981_G983R]", "target_or_test_system": "c-Abl (mouse)", "number": 0.51}
{"sequence_entry": "VRVQLYDPDYM [CYP4A22_Y100]", "target_or_test_system": "c-Abl (mouse)", "number": 0.79}

Incoming: State the recorded phosphorylation enrichment for this entry: THPFPYLSLEI [MLH1_Y293_L292P]
Outgoing: 0.715

Incoming: State the recorded phosphorylation enrichment for this entry: LAVVDYIRRQK [ATM_Y1915_M1916I]
Outgoing: 1.37

Incoming: State the recorded phosphorylation enrichment for this entry: YAANYYKLLGN [ROR2_Y646_D644N]
Outgoing: 0.579

Incoming: State the recorded phosphorylation enrichment for this entry: REGDKYVSHGA [ASS1_Y113_A111D]
Outgoing: 0.873

---

As shown below, each of these sequences has a reported phosphorylation enrichment value.
# System: c-Abl (mouse)
# protocol_description: phosphorylation enrichment, bacterial display (enrichment ratio); higher = better substrate or ligand; peptides without Tyr show the background
No unit in the answer, only the number.

{"sequence_entry": "GRLPEYNTRIA [CCDC151_Y542]", "target_or_test_system": "c-Abl (mouse)", "phosphorylation enrichment": 0.513}
{"sequence_entry": "RYVTRYIYNRE [HLA-DQB1_Y62]", "target_or_test_system": "c-Abl (mouse)", "phosphorylation enrichment": 0.832}
{"sequence_entry": "DSNPIYSQIWS [FCRL3_Y662]", "target_or_test_system": "c-Abl (mouse)", "phosphorylation enrichment": 14.1}
{"sequence_entry": "TVLEPYADPYY [ZC3H18_Y367]", "target_or_test_system": "c-Abl (mouse)", "phosphorylation enrichment": 1.25}
{"sequence_entry": "AGADGYDYLAP [FOXL2_Y186_G187D]", "target_or_test_system": "c-Abl (mouse)", "phosphorylation enrichment": 0.655}
{"sequence_entry": "LKSEMYQKLFK [RGS13_Y146_L150F]", "target_or_test_system": "c-Abl (mouse)", "phosphorylation enrichment": 0.769}

Incoming: State the recorded phosphorylation enrichment for this entry: RGFDTYFGFLL [ARSB_Y165_YF]
Outgoing: 1.14

Incoming: State the recorded phosphorylation enrichment for this entry: PPSGEYFGQCG [TRIP6_Y275]
Outgoing: 1.58

Incoming: State the recorded phosphorylation enrichment for this entry: TKYVAYIESQG [KDM4B_Y34_N29T]
Outgoing: 0.508

---

# target_or_test_system: Fes (UniProt P07332)
# Sequence (P07332 whole entry, looked up): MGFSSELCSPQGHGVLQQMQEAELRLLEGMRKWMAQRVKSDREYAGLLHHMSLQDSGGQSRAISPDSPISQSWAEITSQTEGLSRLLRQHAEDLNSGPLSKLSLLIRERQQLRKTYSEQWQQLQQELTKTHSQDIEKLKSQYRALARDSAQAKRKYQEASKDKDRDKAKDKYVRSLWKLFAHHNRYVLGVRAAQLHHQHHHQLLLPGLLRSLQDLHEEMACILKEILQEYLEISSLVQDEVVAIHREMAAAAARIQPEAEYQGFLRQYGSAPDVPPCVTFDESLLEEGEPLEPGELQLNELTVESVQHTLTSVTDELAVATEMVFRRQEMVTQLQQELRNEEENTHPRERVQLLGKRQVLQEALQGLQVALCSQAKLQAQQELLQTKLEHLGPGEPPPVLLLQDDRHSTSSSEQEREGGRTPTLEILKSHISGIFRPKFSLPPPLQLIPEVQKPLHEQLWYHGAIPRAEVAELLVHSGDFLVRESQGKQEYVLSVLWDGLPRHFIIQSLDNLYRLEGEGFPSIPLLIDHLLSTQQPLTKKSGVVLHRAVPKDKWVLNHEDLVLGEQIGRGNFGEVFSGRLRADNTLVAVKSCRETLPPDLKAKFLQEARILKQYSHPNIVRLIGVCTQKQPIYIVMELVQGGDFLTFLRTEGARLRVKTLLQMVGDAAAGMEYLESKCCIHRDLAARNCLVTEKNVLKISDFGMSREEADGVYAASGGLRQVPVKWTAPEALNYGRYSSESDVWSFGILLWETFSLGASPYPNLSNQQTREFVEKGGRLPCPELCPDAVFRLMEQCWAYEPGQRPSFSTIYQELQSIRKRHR
# protocol_description: phosphorylation enrichment, bacterial display (enrichment ratio); higher = better substrate or ligand; peptides without Tyr show the background
metric_name: phosphorylation enrichment
No unit in the answer, only the number.

{"sequence_entry": "PTTKTYFRHFD [HBA1_Y43_P45R]", "number": 0.998}
{"sequence_entry": "GSLEDYVRETN [GIMAP6_Y176]", "number": 0.869}
{"sequence_entry": "NPQKSYFICLY [WAS_Y83_R86C]", "number": 1.2}
{"sequence_entry": "KSPDSYQKILP [ATM_Y1415_L1420P]", "number": 0.584}
{"sequence_entry": "HLSPEYKQNEI [GJB1_Y243_R238H]", "number": 1.07}
{"sequence_entry": "PHMQTYEVDHN [SDHB_Y61_L65H]", "number": 1.01}
{"sequence_entry": "RLLVVYPWTER [HBB_Y36_Q40E]", "number": 1.21}
{"sequence_entry": "MFNPCYGLFEY [NEDD4L_Y680_Y679C]", "number": 1.32}
{"sequence_entry": "KPPPSYESEEE [BRD4_Y599_T598S]", "number": 1.29}
{"sequence_entry": "AEKPKYQISNI [TJP1_Y1602_N1605S]", "number": 0.544}

Please look at the following sequence next.
Incoming: State the recorded phosphorylation enrichment for this entry: TIQDAYMHITS [ADCY10_Y318_A313T]
Outgoing: 0.799
